All figures here come from PubChem BioAssay (NCATS).

assay protocol: OV-SAHO Cancer Cell Toxicity qHTS against the NCATS CANVASS Library (AID 1347348); note: nearly all actives have a fitted effect of over 55% in size
conditions used: OV-SAHO viability, CellTiter-Glo luminescence, 72 h; series mostly up to 38.3 µM
Results filed as inconclusive are left out. Calls of active or inactive are those of the source. Calls come from the whole dose curve; as a rule, active = well fitted cell-killing curve with a large enough effect; inconclusive = small, poorly fitted or top-dose-only effect; inactive = flat fitted curve, though single readings scatter.
Give your call using only these classes: 1 for active, 0 for inactive

Consider the following illustrative entries.
compound: CN1C(=O)[C@]23SS[C@@]1(C)C(=O)N2[C@H]1Nc2ccccc2[C@]1(c1c[nH]c2ccccc12)[C@@H]3O
category: 1
--
compound: C=C(C)[C@@H]1CC[C@]2(C)CC[C@]3(C)[C@H](CC[C@@H]4[C@@]5(C)CC[C@H](O)C(C)(C)[C@@H]5CC[C@]43C)[C@@H]12
category: 0
--
compound: C=CC(=C)CC[C@]1(C)[C@H]2C[C@H](OC(=O)C(C)CC)C=C3[C@H](OC(C)=O)O[C@H](OC(C)=O)[C@@]32[C@H](OC)C[C@@H]1C (stereo partly drawn)
category: 1

-- ask Tell me the assay call for C[C@H]1C[C@@H]([C@@H]2CC[C@]34O[C@H](CC[C@@]35C[C@H](C)C(=O)O5)CN24)OC1=O please.
-- reply 0

-- ask And then CCCCCCCCCCCCCCCC(=O)OC/C=C(\C)CCCC(C)CC(C)C(C)C (stereo not drawn) , what is it?
-- reply 0

-- ask And then C=C1C[C@@]23C=CC(=O)[C@@](C)(CCC(=O)Nc4c(O)ccc(C(=O)O)c4O)C2C[C@@H]1CC3O (stereo partly drawn) , what is it?
-- reply 0

-- ask And then O=C1c2c(O)cc(O)cc2O[C@@H](c2ccc(O)cc2)[C@@H]1c1c(O)cc(O)c2c(=O)cc(-c3ccc(O)c(O)c3)oc12 , what is it?
-- reply 0

-- ask And then O=C1C[C@@H](c2ccc(O)c(-c3c(O)cc(O)c4c3O[C@H](c3ccc(O)cc3)CC4=O)c2)Oc2cc(O)cc(O)c21 , what is it?
-- reply 0

-- ask And then C=C(C)C(=O)O[C@H]1C[C@H](C)[C@@H](OC(C)=O)CC[C@@]2(C)O[C@@H]2[C@H]2OC(=O)C(COC(C)=O)=C12 , what is it?
-- reply 1

-- ask And then C=CC(C)(C)C(=O)[C@@H](C)[C@@H]1CC[C@](C)(C=C)O1 , what is it?
-- reply 0

-- ask And then CC(=O)O[C@H]1CC[C@@]2(C)C(CC[C@]3(C)C2CC=C2C4CC(C)(C)CC[C@]4(C)CC[C@]23C)C1(C)C (stereo partly drawn) , what is it?
-- reply 0

-- ask And then C1=C2CCCN[C@@H]2[C@@H]2CCN3CCCC[C@@H]3[C@H](C1)C2 , what is it?
-- reply 0
